Where do these numbers come from? They come from patent US7179806B2.

Protocol: log P determination by HPLC (reversed-phase C18, EEC Directive 79/831 Annex V.A8)
Assay type: physicochemical
Test Settings: reversed-phase C18 HPLC column, pH 2.3, pH 2.3, 0.1% aqueous phosphoric acid/acetonitrile gradient, 43° C
Experimental Endpoint: chromatographic logP

molecule="CCN(CC)c1ccc(-c2ccc(C3CCC(c4c(F)cccc4F)=N3)cc2)nn1 (centres unmarked)" test_result=1.39
molecule=CC(C)S(=O)(=O)c1ccc(Cl)nn1 test_result=1.2
molecule="CN(c1ccc(-c2ccc(C3CCC(c4c(F)cccc4F)=N3)cc2)nc1)S(=O)(=O)C(F)(F)F (centres unmarked)" test_result=2.63
molecule="Fc1cccc(F)c1C1=NC(c2ccc(-c3cnc(N4CCCC4)nc3)cc2)CC1 (centres unmarked)" test_result=2.11

a: CC(C)Oc1ncc(Br)cn1
b: CC(C)(C)C1CCN(c2ncc(-c3ccc(C4CCC(c5c(F)cccc5F)=N4)cc3)cn2)CC1 (centres unmarked)
Query :: Returns: the label, a or b , whose recorded chromatographic logP is the lower number. Your answer should be the label attached to the chosen record.
Result :: a

I: O=C1CCCCCN1c1ncc(-c2ccc(C3CCC(c4c(F)cccc4F)=N3)cc2)cn1 (centres unmarked)
II: CCN(CC)c1ncc(-c2ccc(C3CCC(c4c(F)cccc4F)=N3)cc2)cn1 (centres unmarked)
Query :: Returns: the label, I or II , whose recorded chromatographic logP is the lower number. Your answer should be the label attached to the chosen record.
Result :: I

====

Protocol: log P determination by HPLC (reversed-phase C18, EEC Directive 79/831 Annex V.A8)
Format: physicochemical
Test Settings: reversed-phase C18 HPLC column, pH 2.3, pH 2.3, 0.1% aqueous phosphoric acid/acetonitrile gradient, 43° C
Experimental Endpoint: chromatographic logP

Examples from the recorded data:
compound="CON=C1CCN(c2ncc(-c3ccc(C4CCC(c5c(F)cccc5F)=N4)cc3)cn2)CC1 (centres unmarked)" test_result=2.65
compound="Fc1cccc(F)c1C1=NC(c2ccc(-c3ccc(N4CCCCCC4)nc3)cc2)CC1 (centres unmarked)" test_result=1.65

P: C[C@@H]1CN(c2ncc(-c3ccc(C4CCC(c5c(F)cccc5F)=N4)cc3)cn2)C[C@H](C)O1 (some centres unmarked)
Q: CCCCCCN(C(=O)C(C)(C)C)c1ccc(-c2ccc(C3CCC(c4c(F)cccc4F)=N3)cc2)nn1 (centres unmarked)
Query :: Returns: the label, P or Q , whose recorded chromatographic logP is the lower number. Your answer should be the label attached to the chosen record.
Result :: P
(P: 3.03, Q: 4.35)

====

Protocol: log P determination by HPLC (reversed-phase C18, EEC Directive 79/831 Annex V.A8)
Assay type: physicochemical
Test Settings: reversed-phase C18 HPLC column, pH 2.3, pH 2.3, 0.1% aqueous phosphoric acid/acetonitrile gradient, 43° C
Experimental Endpoint: chromatographic logP

Examples from the recorded data:
compound="COCCCN1CCN(c2ccc(-c3ccc(C4CCC(c5c(F)cccc5F)=N4)cc3)cn2)CC1 (stereo not shown) [Example 195]" test_result=1.16
compound="CC1CC(C)CN(c2ncc(-c3ccc(C4CCC(c5c(F)cccc5F)=N4)cc3)cn2)C1 (stereo not shown) [Example 34]" test_result=4.39

A: Fc1cccc(F)c1C1=NC(c2ccc(-c3cnc(N4CCC(C(F)(F)F)CC4)nc3)cc2)CC1 (stereo not shown) [Example 122]
B: N#Cc1ccccc1N1CCN(c2ccc(-c3ccc(C4CCC(c5c(F)cccc5F)=N4)cc3)cn2)CC1 (stereo not shown) [Example 133]
Query :: Pick the one with the larger chromatographic logP: A vs B Your answer should be the label attached to the chosen record.
Result :: A

====

Protocol: log P determination by HPLC (reversed-phase C18, EEC Directive 79/831 Annex V.A8)
Assay type: physicochemical
Test Settings: reversed-phase C18 HPLC column, pH 2.3, pH 2.3, 0.1% aqueous phosphoric acid/acetonitrile gradient, 43° C
Experimental Endpoint: chromatographic logP

Examples from the recorded data:
compound=FC(F)(F)COc1ccc(Cl)nn1 test_result=2.05
compound="Fc1cccc(F)c1C1=NC(c2ccc(-c3cnc(-n4cccc4)nc3)cc2)CC1 (centres unmarked)" test_result=3.58
compound="CC1CC(C)CN(c2ccc(-c3ccc(C4CCC(c5c(F)cccc5F)=N4)cc3)cn2)C1 (centres unmarked)" test_result=2.1
compound="Cc1cccc(C)c1N1CCN(c2ccc(-c3ccc(C4CCC(c5c(F)cccc5F)=N4)cc3)cn2)CC1 (centres unmarked)" test_result=3.76
compound="Fc1cccc(F)c1C1=NC(c2ccc(-c3ccc(OC(F)F)nc3)cc2)CC1 (centres unmarked)" test_result=3.13

A: Fc1cccc(F)c1C1=NC(c2ccc(-c3cnc(OC4CCC4)nc3)cc2)CC1 (centres unmarked)
B: O=C1CCN(c2ncc(-c3ccc(C4CCC(c5c(F)cccc5F)=N4)cc3)cn2)CC1 (centres unmarked)
C: Cc1ccc(-c2ccc(C3CCC(c4c(F)cccc4F)=N3)cc2)nc1 (centres unmarked)
D: CCCCCCN(C)c1ncc(-c2ccc(C3CCC(c4c(F)cccc4F)=N3)cc2)cn1 (centres unmarked)
Query :: Arrange items by their chromatographic logP values in increasing order. Return value: ordered labels per request.
Result :: C, B, A, D

====

Protocol: log P determination by HPLC (reversed-phase C18, EEC Directive 79/831 Annex V.A8)
Assay type: physicochemical
Test Settings: reversed-phase C18 HPLC column, pH 2.3, pH 2.3, 0.1% aqueous phosphoric acid/acetonitrile gradient, 43° C
Experimental Endpoint: chromatographic logP

compound="Fc1cccc(F)c1C1=NC(c2ccc(-c3cnc(N4CCN(Cc5ccc(Cl)cc5)CC4)nc3)cc2)CC1 (stereo not shown)" experimental_endpoint="chromatographic logP" test_result=2.25

1: Fc1cccc(F)c1C1=NC(c2ccc(-c3cccnc3)cc2)CC1 (stereo not shown)
2: Fc1cccc(F)c1C1=NC(c2ccc(-c3cnc(OCC(F)(F)F)nc3)cc2)CC1 (stereo not shown)
3: CCC(C)N(Cc1ccco1)c1ncc(-c2ccc(C3CCC(c4c(F)cccc4F)=N3)cc2)cn1 (stereo not shown)
Query :: Order field: chromatographic logP | Direction: descending (largest first) Return value: ordered labels per request.
Result :: 3, 2, 1

====

Protocol: log P determination by HPLC (reversed-phase C18, EEC Directive 79/831 Annex V.A8)
Assay type: physicochemical
Test Settings: reversed-phase C18 HPLC column, pH 2.3, pH 2.3, 0.1% aqueous phosphoric acid/acetonitrile gradient, 43° C
Experimental Endpoint: chromatographic logP

Examples from the recorded data:
compound="Fc1ccccc1N1CCN(c2ccc(-c3ccc(C4CCC(c5c(F)cccc5F)=N4)cc3)cn2)CC1 (stereo not drawn) [Example 171]" experimental_endpoint="chromatographic logP" test_result=2.51
compound="CN(Cc1ccc(-c2ccc(C3CCC(c4c(F)cccc4F)=N3)cc2)nc1)S(=O)(=O)C(F)(F)F (stereo not drawn) [Example 13]" experimental_endpoint="chromatographic logP" test_result=3.06
compound="CC(=O)N(C)c1ccc(-c2ccc(C3CCC(c4c(F)cccc4F)=N3)cc2)nn1 (stereo not drawn) [Example 67]" experimental_endpoint="chromatographic logP" test_result=1.48
compound="CCOCCN1CCN(c2ncc(-c3ccc(C4CCC(c5c(F)cccc5F)=N4)cc3)cn2)CC1 (stereo not drawn) [Example 125]" experimental_endpoint="chromatographic logP" test_result=1.47
compound="CCCc1cnc(-c2ccc(C3CCC(c4c(F)cccc4F)=N3)cc2)nc1 (stereo not drawn) [Example 169]" experimental_endpoint="chromatographic logP" test_result=2.96
compound="CCCCCC(=O)N(C)c1ccc(-c2ccc(C3CCC(c4c(F)cccc4F)=N3)cc2)nn1 (stereo not drawn) [Example 68]" experimental_endpoint="chromatographic logP" test_result=3.24
compound="Fc1cccc(F)c1C1=NC(c2ccc(-c3ccc(N4CCN(c5ncccn5)CC4)nc3)cc2)CC1 (stereo not drawn) [Example 204]" experimental_endpoint="chromatographic logP" test_result=1.5
compound="Fc1cccc(F)c1C1=NC(c2ccc(-c3ccc(N4CCN(Cc5ccc(Cl)cc5)CC4)nc3)cc2)CC1 (stereo not drawn) [Example 173]" experimental_endpoint="chromatographic logP" test_result=1.83
compound="Brc1ccc(N2CCOCC2)nc1 [III-1, 4-(5-bromo-2-pyridinyl)morpholine]" experimental_endpoint="chromatographic logP" test_result=1.63

A: CCCCCCC(=O)N(CCC)c1ccc(-c2ccc(C3CCC(c4c(F)cccc4F)=N3)cc2)nn1 (stereo not drawn) [Example 64]
B: Fc1cccc(F)c1C1=NC(c2ccc(-c3cncnc3)cc2)CC1 (stereo not drawn) [Example 28]
C: Brc1cnc(N2CCOCC2)nc1 [III-5, 4-(5-bromo-2-pyrimidinyl)morpholine]
Query :: Arrange items by their chromatographic logP values in increasing order. Return value: ordered labels per request.
Result :: B, C, A

====

Protocol: log P determination by HPLC (reversed-phase C18, EEC Directive 79/831 Annex V.A8)
Format: physicochemical
Test Settings: reversed-phase C18 HPLC column, pH 2.3, pH 2.3, 0.1% aqueous phosphoric acid/acetonitrile gradient, 43° C
From the text: Mobile phases for determination in the acidic range: 0.1% aqueous phosphoric acid, acetonitrile; linear gradient from 10% acetonitrile to 90% acetonitrile.
Experimental Endpoint: chromatographic logP

Examples from the recorded data:
molecule="Fc1cccc(F)c1C1=NC(c2ccc(-c3cnc(Cl)nc3)cc2)CC1 (stereo not drawn)" test_result=1.98
molecule="CCOC(=O)N1CCN(c2ccc(-c3ccc(C4CCC(c5c(F)cccc5F)=N4)cc3)nn2)CC1 (stereo not drawn)" test_result=1.63
molecule="COC(=O)C1CCN(c2ccc(-c3ccc(C4CCC(c5c(F)cccc5F)=N4)cc3)cn2)CC1 (stereo not drawn)" test_result=1.61
molecule="CC(C)(C)c1ccc(CN2CCN(c3ccc(-c4ccc(C5CCC(c6c(F)cccc6F)=N5)cc4)cn3)CC2)cc1 (stereo not drawn)" test_result=2.23
molecule="Fc1cccc(F)c1C1=NC(c2ccc(-c3cnc(N4CCN(Cc5ccc(C(F)(F)F)cc5)CC4)nc3)cc2)CC1 (stereo not drawn)" test_result=4.7
molecule="CC(C)Sc1ncc(-c2ccc(C3CCC(c4c(F)cccc4F)=N3)cc2)cn1 (stereo not drawn)" test_result=3.49

1: CC(C)Oc1ccc(Cl)nn1
2: CCCCCCC(=O)N(c1ccc(-c2ccc(C3CCC(c4c(F)cccc4F)=N3)cc2)nn1)C1CCCCC1 (stereo not drawn)
Query :: Returns: the label, 1 or 2 , whose recorded chromatographic logP is the lower number. Your answer should be the label attached to the chosen record.
Result :: 1
(1: 1.94, 2: 4.35)

P: CC(C)Sc1ncc(Br)cn1 [III-8, 5-bromo-2-pyrimidinyl isopropyl sulphide]
Q: CN(C(=O)C(C)(C)C)c1ccc(-c2ccc(C3CCC(c4c(F)cccc4F)=N3)cc2)nn1 (stereo not drawn)
Query :: Returns: the label, P or Q , whose recorded chromatographic logP is the lower number. Your answer should be the label attached to the chosen record.
Result :: Q
(Q: 2.29, P: 3.34)
